Measured kon of individual entries
- MEASUREMENT_TARGET: T1, human HER3-Fc (R&D Systems, 348-RB) (human, UniProt P21860 20-643)
- T1 construct: Bought; also called hHER3-Fc; Fc-HER3; Fc part of the bought chimera not given, not described
- MEASUREMENT_NOTES: SPR, HER3-Fc captured by anti-Fc
Answer as a quantity: numeral, then unit.

Q) For the binder 34A04 (VHH) VHH: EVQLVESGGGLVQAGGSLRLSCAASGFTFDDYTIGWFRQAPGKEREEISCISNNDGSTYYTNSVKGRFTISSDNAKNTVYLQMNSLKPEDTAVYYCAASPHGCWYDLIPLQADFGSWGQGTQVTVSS , what kon is on record?
A) 2.63e+06 M⁻¹ s⁻¹

Q) Entry 23F05 (VHH) VHH: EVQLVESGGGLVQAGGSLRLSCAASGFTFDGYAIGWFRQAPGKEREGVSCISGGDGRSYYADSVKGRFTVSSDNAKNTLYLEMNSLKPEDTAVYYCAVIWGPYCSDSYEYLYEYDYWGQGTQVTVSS : reported kon = ?
A) 3.1e+06 M⁻¹ s⁻¹

Q) Entry under review: 21F06 (VHH, c-myc, His6-tagged form as expressed; also called 21F6; HER3MS21F06) VHH: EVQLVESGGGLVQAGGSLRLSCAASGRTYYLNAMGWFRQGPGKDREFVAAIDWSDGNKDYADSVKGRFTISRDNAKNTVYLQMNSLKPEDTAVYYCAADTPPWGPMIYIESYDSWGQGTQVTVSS . Reported kon?
A) 1.8e+07 M⁻¹ s⁻¹
